- study.system: human NK1 receptor (Homo sapiens)
- Construct: membrane suspension used
- Sequence (P25103 whole entry): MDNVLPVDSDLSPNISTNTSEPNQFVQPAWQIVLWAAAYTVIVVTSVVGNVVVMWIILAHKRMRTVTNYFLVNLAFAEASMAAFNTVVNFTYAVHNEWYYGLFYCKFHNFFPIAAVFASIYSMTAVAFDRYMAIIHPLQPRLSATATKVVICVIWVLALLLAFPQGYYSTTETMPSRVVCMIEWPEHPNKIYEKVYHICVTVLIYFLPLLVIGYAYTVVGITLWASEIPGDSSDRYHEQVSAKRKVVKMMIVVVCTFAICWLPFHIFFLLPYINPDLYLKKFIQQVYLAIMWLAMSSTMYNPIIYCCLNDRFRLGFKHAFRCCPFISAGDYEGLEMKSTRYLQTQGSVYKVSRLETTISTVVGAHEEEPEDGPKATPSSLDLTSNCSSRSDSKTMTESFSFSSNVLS
- test.method.notes: [3H]substance P binding at human NK1 receptors in CHO cells
- run.conditions: affinity to the NK-1 receptor; [3H]substance P 0.6 nM displacement, CHO cell membranes, 60 min at room temperature
Where a name gives a salt, the structure may show the parent alone.
Reported Ki values follow for various compounds
readout: Ki (nM)

{"columns": ["compound", "observed"],
 "data": [
  ["O=C1OC2(CCN(C(=O)c3cc(C(F)(F)F)cc(C(F)(F)F)c3)CC2)C(c2ccccc2)CN1Cc1cccnc1 (racemic) [Example 16]", 6.17],
  ["CN(C)CCCN1CC(c2ccccc2)C2(CCN(C(=O)c3cc(C(F)(F)F)cc(C(F)(F)F)c3)CC2)OC1=O (centres unmarked) [Example 25]", 3.47],
  ["O=C1NCC(c2cccc(F)c2F)C2(CCN(C(=O)c3cc(C(F)(F)F)cc(C(F)(F)F)c3)CC2)O1 (racemic) [Example 5]", 8.51],
  ["O=C1NCC(c2ccccc2)C2(CCN(C(=O)c3cc(C(F)(F)F)cc(C(F)(F)F)c3)CC2)O1 (racemic) [Example 4]", 5.13],
  ["O=C1OC2(CCN(C(=O)c3cc(C(F)(F)F)cc(C(F)(F)F)c3)CC2)C(c2ccccc2)CN1CCN1CCOCC1 (centres unmarked) [Example 27, hydrochloride]", 6.31],
  ["CN(C)C(=O)CN1CC(c2ccccc2)C2(CCN(C(=O)c3cc(C(F)(F)F)cc(C(F)(F)F)c3)CC2)OC1=O (racemic) [Example 14]", 6.61],
  ["COc1cccc(C2CNC(=O)OC23CCN(C(=O)c2cc(C(F)(F)F)cc(C(F)(F)F)c2)CC3)c1 (racemic) [Example 10]", 14.8],
  ["CN(C)CCN1CC(c2ccccc2)C2(CCN(C(=O)c3cc(C(F)(F)F)cc(C(F)(F)F)c3)CC2)OC1=O (racemic) [Example 28, hydrochloride]", 7.41],
  ["O=C1OC2(CCN(C(=O)c3cc(C(F)(F)F)cc(C(F)(F)F)c3)CC2)C(c2ccccc2)CN1CCCN1CCC(O)C1 (racemic) [Example 26]", 4.07],
  ["Cc1ccccc1C1CNC(=O)OC12CCN(C(=O)c1cc(C(F)(F)F)cc(C(F)(F)F)c1)CC2 (racemic) [Example 7]", 10.7],
  ["O=C1OC2(CCN(C(=O)c3cc(C(F)(F)F)cc(C(F)(F)F)c3)CC2)C(c2ccccc2)CN1CCCN1CCOCC1 (racemic) [Example 24]", 3.47],
  ["CN1CC(c2ccc(F)c(F)c2)C2(CCN(C(=O)c3cc(C(F)(F)F)cc(C(F)(F)F)c3)CC2)OC1=O (racemic) [Example 20]", 30.9],
  ["CN1CC(c2ccccc2)C2(CCN(C(=O)c3cc(C(F)(F)F)cc(C(F)(F)F)c3)CC2)OC1=O (racemic) [Example 18]", 15.5],
  ["O=C1NCC(c2cccc(Cl)c2)C2(CCN(C(=O)c3cc(C(F)(F)F)cc(C(F)(F)F)c3)CC2)O1 (racemic) [Example 1]", 5.13],
  ["CN1CCC(N2CC(c3ccccc3)C3(CCN(C(=O)c4cc(C(F)(F)F)cc(C(F)(F)F)c4)CC3)OC2=O)CC1 (racemic) [Example 12]", 3.89],
  ["O=C1NCC(c2ccc(F)c(F)c2)C2(CCN(C(=O)c3cc(C(F)(F)F)cc(C(F)(F)F)c3)CC2)O1 (racemic) [Example 2]", 1.7],
  ["COCCN1CC(c2ccc(F)c(F)c2)C2(CCN(C(=O)c3cc(C(F)(F)F)cc(C(F)(F)F)c3)CC2)OC1=O (racemic) [Example 19]", 19.1],
  ["O=C1OC2(CCN(C(=O)c3cc(C(F)(F)F)cc(C(F)(F)F)c3)CC2)C(c2ccccc2)CN1CCCO (racemic) [Example 21]", 6.76],
  ["O=C1OC2(CCN(C(=O)c3cc(C(F)(F)F)cc(C(F)(F)F)c3)CC2)C(c2ccccc2)CN1CCO (racemic) [Example 22]", 15.8],
  ["O=C1NCC(c2ccc(Cl)c(Cl)c2)C2(CCN(C(=O)c3cc(C(F)(F)F)cc(C(F)(F)F)c3)CC2)O1 (racemic) [Example 3]", 2.63],
  ["O=C1OC2(CCN(C(=O)c3cc(C(F)(F)F)cc(C(F)(F)F)c3)CC2)C(c2ccccc2)CN1CCN1CCCC1 (racemic) [Example 30, hydrochloride]", 11.5],
  ["COc1nc(OC)nc(N2CC(c3ccccc3)C3(CCN(C(=O)c4cc(C(F)(F)F)cc(C(F)(F)F)c4)CC3)OC2=O)n1 (centres unmarked) [Example 17]", 13.2],
  ["CN1CCN(CCCN2CC(c3ccccc3)C3(CCN(C(=O)c4cc(C(F)(F)F)cc(C(F)(F)F)c4)CC3)OC2=O)CC1 (racemic) [Example 29]", 10.5],
  ["O=C1NCC(c2ccccc2Cl)C2(CCN(C(=O)c3cc(C(F)(F)F)cc(C(F)(F)F)c3)CC2)O1 (racemic) [Example 11]", 23.4],
  ["O=C1NCC(c2cc(F)ccc2F)C2(CCN(C(=O)c3cc(C(F)(F)F)cc(C(F)(F)F)c3)CC2)O1 (racemic) [Example 6]", 9.77],
  ["O=C(c1cc(C(F)(F)F)cc(C(F)(F)F)c1)N1CCC2(CC1)OC(=O)N(C1CCOCC1)CC2c1ccccc1 (racemic) [Example 13]", 19.1]
]}

These entries and their values trace back to patent US6599900B2.
